System: HuH-7 (Hepatocellular Carcinoma)
Test Description: combination Emax (second highest fraction inhibited in the dose matrix, 72 h); higher = more inhibition; extreme values may be limits of the assay
Measurement Name: combination Emax
Numbers only.

combination Emax reported for this compound CC1(C)CCC(CN2CCN(c3ccc(C(=O)NS(=O)(=O)c4ccc(NCC5CCOCC5)c([N+](=O)[O-])c4)c(Oc4cnc5[nH]ccc5c4)c3)CC2)=C(c2ccc(Cl)cc2)C1 [Venetoclax] + C[C@@H](Nc1cc(F)cc(F)c1)c1cc(C(=O)N(C)C)cc2c(=O)cc(N3CCOCC3)oc12 [AZD8186] (first compound max 1 µM, 7x7, partner max 3 µM) : 0.144

----------
Test system: SNU-449 (Hepatocellular Carcinoma)
Test Description: combination Emax (second highest fraction inhibited in the dose matrix, 72 h); higher = more inhibition; extreme values may be limits of the assay
Measurement Name: combination Emax
Give bare numbers.

>>> measured_number("Cc1c2c(nn1C)CSCc1cc(n(C)n1)CSc1cc(c3ccccc3c1)OCCCc1c(C(=O)O)n(C)c3c-2c(Cl)ccc13 [AZD5991] + CS(=O)(=O)CCNCc1ccc(-c2ccc3ncnc(Nc4ccc(OCc5cccc(F)c5)c(Cl)c4)c3c2)o1 [Lapatinib] (first compound max 1 µM, 7x7, partner max 10 µM)")
0.547

Okay, next one:
combination Emax reading for Cn1cnc2c(F)c(Nc3ccc(Br)cc3Cl)c(C(=O)NOCCO)cc21 [Selumetinib] + CCN(CCO)CCCOc1ccc2c(Nc3cc(CC(=O)Nc4cccc(F)c4)[nH]n3)ncnc2c1 [AZD2811] (first compound max 10 µM, 7x7, partner max 1 µM) : 0.221

----------
System: CAL-33 (Oral Cavity Carcinoma);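 further: after 72 h of two-drug dosing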
Test Description: Bliss excess, mean over the matrix (fraction); higher = more synergy
Bucketed by reported Bliss excess, buckets being category 1 = under -0.03, category 2 = from -0.03 up to 0.02, category 3 = 0.02 and over

>>> classification("CC1(C)CCC(CN2CCN(c3ccc(C(=O)NS(=O)(=O)c4ccc(NCC5CCOCC5)c([N+](=O)[O-])c4)c(Oc4cnc5[nH]ccc5c4)c3)CC2)=C(c2ccc(Cl)cc2)C1 [Venetoclax] + C=CCn1c(=O)c2cnc(Nc3ccc(N4CCN(C)CC4)cc3)nc2n1-c1cccc(C(C)(C)O)n1 [AZD1775] (first compound max 1 µM, partner max 1 µM)")
"category 1"

Challenge: Class (by measured Bliss excess) for CC1(C)CCC(CN2CCN(c3ccc(C(=O)NS(=O)(=O)c4ccc(NCC5CCOCC5)c([N+](=O)[O-])c4)c(Oc4cnc5[nH]ccc5c4)c3)CC2)=C(c2ccc(Cl)cc2)C1 [Venetoclax] + C[C@@H]1COCCN1C2=NC(=NC(=C2)C3(CC3)[S@](=N)(=O)C)C4=C5C=CNC5=NC=C4 [AZD6738] (first compound max 1 µM, 7x7, partner max 10 µM)
Response given: category 1

Challenge: Record CCc1c2c(nc3ccc(O)cc13)-c1cc3c(c(=O)n1C2)COC(=O)[C@]3(O)CC [SN-38] + CN(C)CCCOc1ccc(-c2ccc3ncc4c(c3c2)n(C2CCOCC2)c(=O)n4C)cn1 [AZD0156] (first compound max 0.3 µM, 7x7, partner max 1 µM) — which class?
Response given: category 3

Challenge: Quick check: band for CN(C)CCCOc1ccc(-c2ccc3ncc4c(c3c2)n(C2CCOCC2)c(=O)n4C)cn1 [AZD0156] + CCN(CCO)CCCOc1ccc2c(Nc3cc(CC(=O)Nc4cccc(F)c4)[nH]n3)ncnc2c1 [AZD2811] (first compound max 1 µM, 7x7, partner max 1 µM)
Response given: category 2

Challenge: Place this compound in its band: CN(CCO)CC[C@H](CSc1ccccc1)Nc1ccc(S(=O)(=O)NC(=O)c2ccc(N3CCC([C@@H](O)c4ccccc4-c4ccc(Cl)cc4)CC3)cc2)cc1S(=O)(=O)C(F)(F)F [AZD4320] + C1CN(CCC1(C(=O)N[C@@H](CCO)C2=CC=C(C=C2)Cl)N)C3=NC=NC4=C3C=CN4 [Capivasertib] (first compound max 1 µM, 7x7, partner max 3 µM)
Response given: category 1

Challenge: Which Bliss excess category applies to Cc1c2c(nn1C)CSCc1cc(n(C)n1)CSc1cc(c3ccccc3c1)OCCCc1c(C(=O)O)n(C)c3c-2c(Cl)ccc13 [AZD5991] + C[C@@H]1COCCN1C2=NC(=NC(=C2)C3(CC3)[S@](=N)(=O)C)C4=C5C=CNC5=NC=C4 [AZD6738] (first compound max 1 µM, 7x7, partner max 10 µM) here?
Response given: category 2

Challenge: For Cc1cc2ncnn2cc1Nc1ncc2c(n1)n(C1CCOCC1)c(=O)n2C [AZD7648] + CCN(CCO)CCCOc1ccc2c(Nc3cc(CC(=O)Nc4cccc(F)c4)[nH]n3)ncnc2c1 [AZD2811] (first compound max 10 µM, 7x7, partner max 1 µM) , which Bliss excess bin applies?
Response given: category 2

Challenge: Lab note: which band did Cc1c2c(nn1C)CSCc1cc(n(C)n1)CSc1cc(c3ccccc3c1)OCCCc1c(C(=O)O)n(C)c3c-2c(Cl)ccc13 [AZD5991] + C=CCn1c(=O)c2cnc(Nc3ccc(N4CCN(C)CC4)cc3)nc2n1-c1cccc(C(C)(C)O)n1 [AZD1775] (first compound max 1 µM, partner max 1 µM) land in?
Response given: category 2

Challenge: Kindly state the category for this compound: Cc1cc2ncnn2cc1Nc1ncc2c(n1)n(C1CCOCC1)c(=O)n2C [AZD7648] + C=CCn1c(=O)c2cnc(Nc3ccc(N4CCN(C)CC4)cc3)nc2n1-c1cccc(C(C)(C)O)n1 [AZD1775] (first compound max 10 µM, partner max 1 µM)
Response given: category 3

Challenge: Please indicate the class for CCc1c2c(nc3ccc(O)cc13)-c1cc3c(c(=O)n1C2)COC(=O)[C@]3(O)CC [SN-38] + O=C(c1cc(Cc2n[nH]c(=O)c3ccccc23)ccc1F)N1CCN(C(=O)C2CC2)CC1 [Olaparib] (first compound max 0.3 µM, 7x7, partner max 10 µM) based on its Bliss excess.
Response given: category 3

Challenge: State the class of the compound shown: NC1(C(=O)N[C@@H](CCO)c2ccc(Cl)cc2)CCN(c2ncnc3[nH]ccc23)CC1 [Capivasertib] + CC(=O)c1c(C)c2cnc(Nc3ccc(N4CCNCC4)cn3)nc2n(C2CCCC2)c1=O [Palbociclib] (first compound max 10 µM, 7x7, partner max 10 µM)
Response given: category 3

Challenge: Please indicate the class for Cc1c2c(nn1C)CSCc1cc(n(C)n1)CSc1cc(c3ccccc3c1)OCCCc1c(C(=O)O)n(C)c3c-2c(Cl)ccc13 [AZD5991] + C1CN(CCC1(C(=O)N[C@@H](CCO)C2=CC=C(C=C2)Cl)N)C3=NC=NC4=C3C=CN4 [Capivasertib] (first compound max 1 µM, 7x7, partner max 3 µM) based on its Bliss excess.
Response given: category 2
